- method_description: SK-BR-3 cell growth inhibitors, pilot screen, 24 h, human (AID 572);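 further: compound exposure lasted between 18 and 24 h rather than exactly 24 h; 100% = carrier-treated control wells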
- experimental_context: SK-BR-3 viability, CellTiter-Glo luminescence, at 10 µM, hits give low values
Exercise: state measured viability for each of the compounds provided.
Record the value in %, omitting the unit from your answer.

I have this compound here, c1cncc(-c2nnc3sc(-c4ccco4)nn23)c1 , and I need its recorded viability.
118

Given CCOC(=O)c1ccccc1NC(=O)c1cc2sccc2n1C , state its recorded viability.
90

Quick check: viability of COc1ccc(C(=O)N(CCCO)Cc2cc3c(C)ccc(C)c3[nH]c2=O)cc1OC ?
90.5

Bench note: what viability did CCOc1ccccc1NC(=O)N1C2CCCC1CC(NC(=O)C1CC1)C2 (stereo unspecified) show?
102

Consider the compound O=S1(=O)N=C(Nc2nc3c(s2)CCCC3)c2ccccc21 and give its measured viability.
82

Please report the recorded viability for Nc1nnc(C(=O)c2ccccc2N)s1 .
108
